# Test system: Phytophthora infestans
# Format: in vivo
# Applied conditions: tomato plants, preventive spray, 500 ppm of active ingredient, evaluated 5 days after inoculation
Property label: % efficacy (%)
Numbers only, in %.

Example entries begin here.
>>> measurement("CCCC(C)C(=O)Nc1nc(CON=C(c2ccsc2)c2noc(=O)n2C)cs1 (centres unmarked)")
100
>>> measurement("CCCCOC(=O)Nc1cccc(CON=C(c2cccnc2)c2noc(=O)n2C)n1")
100
>>> measurement("CCCCCOC(=O)Nc1cccc(CON=C(c2ccccn2)c2nc(=O)on2C)n1")
88
>>> measurement("CCCCCC(=O)Nc1cccc(CON=C(c2ccccn2)c2noc(=O)n2C)n1")
88
>>> measurement("Cn1c(C(=NOCc2cccc(NC(=O)OC(C)(C)C)n2)c2ccccn2)noc1=O")
98

Give measured % efficacy for every item shown.
1. CC(Oc1ccccc1)C(=O)Nc1nc(CON=C(c2ccsc2)c2noc(=O)n2C)cs1 (racemic)
2. Cn1c(C(=NOCc2csc(NC(=O)C3CCc4ccccc4O3)n2)c2ccsc2)noc1=O (centres unmarked)
3. CC(Oc1ccccc1)C(=O)Nc1nc(CON=C(c2cccs2)c2noc(=O)n2C)cs1 (centres unmarked)

result:
[98, 75, 100]
